System: MS2 coat protein
Assay: apparent KD of MS2 coat protein; designed switch direction (-1 OFF switch, 1 ON switch): -1; higher = weaker reporter binding
Conditions: Eterna round: R95; input ligand: microRNA oligo, concentration not stated
Is apparent KD of MS2 coat protein at least 0.03 µM? Then 1. If not, -1.

Worked set:
CUGAGGUAGCGGUCCUAUUACAUGAGGAUCACCCAUGUACCUUGCUUCGAGCUUUUAGCUCGUCUUAUGAUUCUCGG [Mat - Sensor v3 - turn-off var 1 - JL Mod - D38] (puzzle: Sensor v3, turn-off variant 1) | 1
GGUUGACAUGAGGAUCACCCAUGUGAGGAUAUGCGAGAGAAAAAAGUGAGGAAGAAAUGCAGAAGGCGCUGUCG [salish99-ex1_r3_009] (puzzle: Exclusion 1) | 1
UGGGUUCUCCAUAGAAGUAACAUGAGGAUCACCCAUGUAGGGCAAGUUUUUUGCUCGUCAUAGGUUGAGGGAUUGGA [JR_SV3TOV1_Sub017] (puzzle: Sensor v3, turn-off variant 1) | 1
AGUACUAACACGAUAGUGUUAGUACUAUAAGCUUGUGUUACAUGAGGAUCACCCAUGUCCUCAUAAGCUCGUCUUAU [Mat - Sensor v3 - Turn-off var 2 - D78] (puzzle: Sensor v3, turn-off variant 2) | 1
GAAGAGACAGGAUAUACAUGAGGAUCACCCAUGUGAGGAGGAAGAGAGAGGAGAAGGAGUAGAAGGGUCAGAGG [JR_Exclu3_Sub028] (puzzle: Exclusion 3) | 1
AGUACUAACACGAAAGUGUUAGUGCAAUAAGCUUGUGAAACAUGAGGAUCACCCAUGUCCUCAUAAGCUCGUCUUAU [salish99_TOv2_r3_039] (puzzle: Sensor v3, turn-off variant 2) | 1
UAUUAGUGAGGAUAUGAGUCGUAGAACAAUAGUACUACGUCUCAGAAGGUACAUGAGGAUCACCCAUGUUCCUU [Fiskers Ex 4 Super Stable 44 mod 34] (puzzle: Exclusion 4) | -1
AAAUCACAUGAGGAUCACCCAUGUGAGGAUAUGAUACUAUGUACUUCGGUACAUAGUAUCAGAAGGCAUGUGGA [Ex1-3: 89] (puzzle: Exclusion 1) | -1
UUUUACUCAGGAUAUAUGAUGUGAAACAUGAGGAUCACCCAUGUAAUAUUAUGGAUGUAAAUAGAAGGGAGAUUUA [Mat - Exclusion 5 - JL mod - D16] (puzzle: Exclusion 5) | 1
AACGGUGGGUAGGAUAUCCGGUUCUAGUUGCCAGGAGAAGGGCCCACAUGAGGAUCACCCAUGUGGGUGGGCUC [Maesri] (puzzle: Exclusion 6) | 1

Quick check: does AGUAACAGAGGAUAUACUAUUUUAUGUAUUUAUUAUUUUAAACAUGAGGAUCACCCAUGUAGAAGGCUGAAUGA [JMF 97] (puzzle: Exclusion 2) have apparent KD of MS2 coat protein greater than or equal to 0.03 µM?
-1

Quick check: does CUAGUCCGAGGAUAUAUUAUGUGAUACAUGAGGAUCACCCAUGUUAUAUGAUGGAUGUUAGUAGAAGGCGGACUAG [Mat - Exclusion 5 - JL mod - D81] (puzzle: Exclusion 5) have apparent KD of MS2 coat protein greater than or equal to 0.03 µM?
1

Quick check: does AAAAGAAGUGUUAGGAUAUGUGGAAGCAGAAAGACACAGAAGGAACAUGAGGAUCACCCAUGUGACCAAAGAAC [Maenonis] (puzzle: Brourd's mod of Exclusion 4) have apparent KD of MS2 coat protein greater than or equal to 0.03 µM?
-1
